Let's look at some compounds and their measured viability increase.
- method: viability gain of MRP-1-high H69AR cells under doxorubicin, pilot screen, MRP-1 activator project, CellTiter-Glo, duplicate (AID 807);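 note: compound pretreatment 18-22 h then 72 h combined with doxorubicin; 0% = doxorubicin alone and 100% = vehicle without doxorubicin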
- run.conditions: H69AR viability with doxorubicin, CellTiter-Glo luminescence; at 10 µM; stronger effect = higher value
measured.property: viability increase (%)

> print(dat)
                                   compound  recorded.result
1  COc1ccccc1NC(=O)Cn1c(=O)n2nc(C)nc2c2ccccc21            -4.08
2       Cc1ccn2cc(CCNC(=O)c3ccc(Br)o3)nc2c1            -0.26
3  CCOc1ccc(C2CC(=O)NC(SCC(=O)OC)=C2C#N)cc1 (stereo unspecified)             2.65
4           COc1ccc(CN=CC2=C(O)CNC2=O)cc1OC            -0.57
5  CCOC(=O)CSc1nnc(CSc2nc3sc4c(c3c(=O)[nH]2)CCC4)n1C               -2
6  CCOc1cccc(C2c3c(oc4ccccc4c3=O)C(=O)N2c2ccccn2)c1 (stereo unspecified)             -2.2

====

- method: viability gain of MRP-1-high H69AR cells under doxorubicin, pilot screen, MRP-1 activator project, CellTiter-Glo, duplicate (AID 807);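 note: compound pretreatment 18-22 h then 72 h combined with doxorubicin; 0% = doxorubicin alone and 100% = vehicle without doxorubicin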
- run.conditions: H69AR viability with doxorubicin, CellTiter-Glo luminescence; at 10 µM; stronger effect = higher value
measured.property: viability increase (%)

> print(dat)
                                    molecule  recorded.result
 1     CCOC(=O)CNC(=O)c1c2c(nc3ccccc13)CCCC2            -5.37
 2  O=C(NCCN1CCOCC1)c1ccc(CS(=O)(=O)c2c(Cl)cccc2Cl)o1            -0.81
 3  COc1ccc(NC(=O)N(Cc2cccnc2)Cc2ccccc2Cl)c(OC)c1            -3.53
 4  COc1ccc(Cl)cc1NC(=O)Cn1c(=O)n2nc(C)nc2c2ccccc21            -7.15
 5  Cc1ccc(C)c(N2CCN(C(=O)C3CCCN(S(=O)(=O)c4cnc[nH]4)C3)CC2)c1 (configuration not stated)             2.66
 6  COC(=O)c1ccc2c(c1)NC(=O)C1CCCN21 (configuration not stated)            -0.72
 7      Cn1c(Cn2c(=O)sc3ccccc32)nnc1SCC(N)=O             0.08
 8   CCn1c(SCC(=O)NCCOc2ccccc2)nc2ccccc2c1=O            -1.87
 9            Cc1ccc(S(=O)(=O)N=C2SCCCS2)cc1            -2.68
10  CCCOc1ccc(N2C(=O)CC(N3CCN(c4ccccc4F)CC3)C2=O)cc1 (configuration not stated)              1.4
11  Cc1ccc(C(=O)CSC2=NC(N)=C(C#N)C3(CCCCC3)C2C(N)=O)cc1 (configuration not stated)             -4.6
12  O=C(Cn1cnc2c(nnn2-c2ccccc2)c1=O)NCC1CCCO1 (configuration not stated)            -2.94
13  COC(=O)C1=C(C)NC(=O)NC1C1CC=CCC1 (configuration not stated)             0.06
14       CCCCCSc1nc2c(c(=O)[nH]c(=O)n2C)n1CC             -3.9
15  OC(C#CCN1CCCC1)c1ccccc1 (configuration not stated)            -0.22
16               CCN(CC)CCCNc1nc2ccccc2[nH]1            -0.63
17  c1ccc(N2CCOCC2)c(Nc2nc3ccccc3n3cnnc23)c1            -2.57
18  COc1ccc(-n2c(Cc3cccn3C)nnc2SCC(=O)N2CCCC2)cc1            -0.77
19      Cc1cc(N2CCOCC2)nc(SCC(=O)c2ccccc2)n1            -1.98
20        CC(C)(Oc1ccc(Cl)cc1)C(=O)NCc1ccco1            -4.22
21  CCOC(=O)CNC(=O)c1cn(CC(C)C)c(=O)c2cc(OC)c(OC)cc12            -1.77
22       CCOC(=O)c1c(N)sc(C(=O)N2CCCCCC2)c1C             0.25
23        O=C(CN1CCOc2ccccc21)NCc1ccc(Cl)cc1            -6.71
24           O=C(c1cc(-c2ccccc2O)on1)N1CCCC1            -4.17
25  Cn1c(Cn2c(=O)sc3ccccc32)nnc1SCC(=O)Nc1ccc2c(c1)OCO2             -5.8
26            CCS(=O)(=O)n1nc(-c2ccccc2)cc1N            -1.52
27  COc1ccc(N2CCCCn3c2nc2c3c(=O)[nH]c(=O)n2C)cc1            -2.97
28           CC(C)n1c(CCC(=O)O)ccc1-c1ccccc1            -0.71
29  COc1cc(C(=O)NCC(c2cccnc2)N2CCN(c3ccccc3)CC2)cc(OC)c1OC (configuration not stated)            -4.26
30          Cc1cc(C)c(C)c(OCC(=O)NCCN(C)C)c1            -1.08
31  Cc1ccc(O)c(C2=NOC(O)(C(F)(F)C(F)F)C2)c1 (configuration not stated)            -5.27
32  COc1ccc(C(=O)Nc2ccccc2C(=O)NCCCn2ccnc2)cc1            -0.82
33  COc1ccccc1CC(=O)N1CCN(c2cccc(C(F)(F)F)c2)CC1             1.84
34  CCN1CCN(C(CNS(=O)(=O)c2ccc(OC)cc2)c2cccnc2)CC1 (configuration not stated)            -1.16
35  COc1cc2c(=O)n(Cc3ccccc3)c(=O)n(CC(=O)NCC3CCCO3)c2cc1OC (configuration not stated)            -0.67
36  CC1Cc2nc(SCC(=O)N3CCOCC3)n(-c3ccccc3)c(=O)c2S1 (configuration not stated)            -0.68
37            CCOC(=O)CSc1n[nH]c(-c2ccco2)n1            -1.01
